Molecular target: T1, recombinant human IL4Rα-his protein (in house made) (human, UniProt P24394 26-232, limits assumed)
T1 construct: also called Human IL4Ra-his
Assay: capture ELISA, biotin-IL4Rα-his
quantity: pEC50
// pEC50: -log10(molar conc.)

Consider the following illustrative entries.
binder: chimeric antibody B8G11F2B7G5E8 (antibody, human IgG4 S228P, kappa, V domains shown, Mouse variable domains on human IgG4/kappa; also called Chimeric B8G11F2B7G5E8; chB8G11F2B7G5E8) VH: EVQLQQSGADLVRPGASVKLSCTASGFNIKDTYMHWVKQRPEQGLEWVGRIDPTNGYTIYASKFQGKATITADTSSNTAYMQLSSLTSGDTAVYHCVSRRPWFAYWGQGTLVTVSA VL: DILMTQTPLSLPVSLGAQASISCRSSQSIVHSNGNTYLEWYLQKPGQSPKLLIYKVTNRFSGVPDRFSGSGSGTDFTLKISRVEAEDLGIYYCFQGSHVPYTFGGGTKLEIKR
readout.value: 9.57
--
binder: chimeric antibody C2C1A1A1 (antibody, human IgG4 S228P, kappa, V domains shown, Mouse variable domains on human IgG4/kappa; also called Chimeric C2C1A1A1; chC2C1A1A1) VH: EVQLVESGGGLVQPGGSLKLSCAASGFTFSTYGMSWVRQTPDKRLELVATINSNGGSTSYPDSVKGRFTISRDNAKNTLYLQMSSLKSEDTAMFYCARFFRFRNAMDYWGQGTSVTVSS VL: DIQMTQSPASLSASVGETVTITCRTSENIYSYLAWYQQKQGKSPQFLVYNAKTLAEGVPSRFSGSGSGTQFSLNINSLQSEDFGSYYCQHYYGPPTWTFGGGTKLEIKR
readout.value: 10.30
--
binder: mouse antibody C2C1A1A1 (antibody, V domains shown, Mouse hybridoma mAb; also called Mouse C2C1A1A1) VH: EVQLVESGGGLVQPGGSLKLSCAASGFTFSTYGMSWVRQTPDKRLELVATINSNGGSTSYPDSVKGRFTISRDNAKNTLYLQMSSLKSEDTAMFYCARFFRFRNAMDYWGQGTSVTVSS VL: DIQMTQSPASLSASVGETVTITCRTSENIYSYLAWYQQKQGKSPQFLVYNAKTLAEGVPSRFSGSGSGTQFSLNINSLQSEDFGSYYCQHYYGPPTWTFGGGTKLEIK
readout.value: 10.52

In the following, a different binder is considered.
Problem: # lookup: pEC50 of mouse antibody B8G11F2B7G5E8 (antibody, V domains shown, Mouse hybridoma mAb; also called Mouse B8G11F2B7G5E8; mAb B8G11F2B7G5E8) VH: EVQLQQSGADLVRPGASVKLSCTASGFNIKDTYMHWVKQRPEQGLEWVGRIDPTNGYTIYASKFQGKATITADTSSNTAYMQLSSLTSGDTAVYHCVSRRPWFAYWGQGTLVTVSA VL: DILMTQTPLSLPVSLGAQASISCRSSQSIVHSNGNTYLEWYLQKPGQSPKLLIYKVTNRFSGVPDRFSGSGSGTDFTLKISRVEAEDLGIYYCFQGSHVPYTFGGGTKLEIK
Solution: 9.85
